- SYSTEM: bradykinin 1 receptor (B1R) of the rat (Rattus norvegicus, UniProt P97583)
- Construct: expressed in transfected cells; host or cells: CHO K1 cells
- Sequence (P97583 whole entry): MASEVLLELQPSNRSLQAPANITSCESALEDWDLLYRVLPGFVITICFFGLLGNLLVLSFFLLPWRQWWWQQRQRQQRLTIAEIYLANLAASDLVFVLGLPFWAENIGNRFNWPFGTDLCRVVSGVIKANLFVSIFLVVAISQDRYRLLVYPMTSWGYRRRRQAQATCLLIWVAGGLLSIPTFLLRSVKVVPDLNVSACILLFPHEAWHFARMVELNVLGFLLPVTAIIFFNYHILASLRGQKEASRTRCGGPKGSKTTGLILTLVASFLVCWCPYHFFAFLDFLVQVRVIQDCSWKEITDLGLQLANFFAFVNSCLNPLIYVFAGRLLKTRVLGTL
- EXPERIMENTAL PROTOCOL: Functional investigation on the rat bradykinin 1 receptor (B1R), Ca2+ FLIPR assay in CHO K1 rB1R cells
- Format: cell-based
- MEASUREMENT CONDITIONS: CHO-K1, B1R antagonism rat; test substance 10 μM; Ca2+ FLIPR, CHO K1 rB1R cells; read-out: B1R Ant. r [10 μM] % Inhibition
MEASURED METRIC: inhibition at 10 µM (%)
Your answer should be a plain number; it is taken to be in %.

# compound CN(CCOCC(=O)NCC1CCC(C(c2ccccc2)N2CCCC2)CC1)S(=O)(=O)c1c(Cl)cccc1Cl (stereo not shown) ; its inhibition at 10 µM = 62

# compound CN(CCOCC(=O)NC1CCC(C(CCc2ccccc2)N2CCCCC2)CC1)S(=O)(=O)c1ccc(Cl)cc1Cl (stereo not shown) ; its inhibition at 10 µM = 25

# compound CN(C)C(c1ccccc1)C1CCC(CNC(=O)COCCN(C)S(=O)(=O)c2c(Cl)cccc2Cl)CC1 (stereo not shown) ; its inhibition at 10 µM = 44

# compound COc1cc(C)c(S(=O)(=O)N2CCC(CCOCC(=O)NCCC3CCC(C(c4cccs4)N(C)C)CC3)CC2)c(C)c1C (stereo not shown) ; its inhibition at 10 µM = 15

###

- SYSTEM: serotonin (5-HT) reuptake (Rattus norvegicus)
- Construct: synaptosomes are freshly isolated from areas of the rat brain; from tissue; host or cells: rat brain synaptosomes (P2 fraction)
- Sequence (P31652 whole entry): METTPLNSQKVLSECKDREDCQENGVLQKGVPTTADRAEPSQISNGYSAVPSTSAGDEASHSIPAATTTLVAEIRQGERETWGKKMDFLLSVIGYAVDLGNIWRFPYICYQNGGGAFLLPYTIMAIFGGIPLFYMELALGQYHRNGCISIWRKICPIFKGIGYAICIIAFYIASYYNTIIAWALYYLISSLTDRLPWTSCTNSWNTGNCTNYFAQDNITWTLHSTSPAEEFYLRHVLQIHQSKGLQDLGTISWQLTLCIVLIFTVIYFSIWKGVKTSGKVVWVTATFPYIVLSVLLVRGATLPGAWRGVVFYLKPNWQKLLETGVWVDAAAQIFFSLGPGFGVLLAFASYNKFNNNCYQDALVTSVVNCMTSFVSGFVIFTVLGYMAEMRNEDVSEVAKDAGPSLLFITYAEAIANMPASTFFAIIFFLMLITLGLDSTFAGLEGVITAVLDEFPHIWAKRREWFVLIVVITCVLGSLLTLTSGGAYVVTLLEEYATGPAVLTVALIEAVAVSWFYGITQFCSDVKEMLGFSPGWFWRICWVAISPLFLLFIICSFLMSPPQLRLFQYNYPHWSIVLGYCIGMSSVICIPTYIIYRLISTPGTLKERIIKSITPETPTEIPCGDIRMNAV
- EXPERIMENTAL PROTOCOL: Inhibition of serotonin (5HT) reuptake in synaptosomes from rat brain
- Format: biochemical
- MEASUREMENT CONDITIONS: test concentration of 10 μM
MEASURED METRIC: 5-HT (inhibition of reuptake of serotonin, % inhibition) (%)
Your answer should be a plain number; it is taken to be in %.

# compound CN(C)C(c1ccc(F)cc1)C1CCC(NC(=O)COC2CCN(S(=O)(=O)c3ccccc3)CC2)CC1 (stereo not shown) [Example 408] ; its 5-HT (inhibition of reuptake of serotonin, % inhibition) = 93

# compound CN(C)C(c1ccc(Cl)cc1)C1CCC(CNC(=O)COCCN(C)S(=O)(=O)c2cccc(C(F)(F)F)c2)CC1 (stereo not shown) [Example 314] ; its 5-HT (inhibition of reuptake of serotonin, % inhibition) = 93

# compound COc1cc(C)c(S(=O)(=O)N2CCC(OCC(=O)NC3CCC(C(c4cccc(F)c4)N(C)C)CC3)CC2)c(C)c1C (stereo not shown) [Example 286] ; its 5-HT (inhibition of reuptake of serotonin, % inhibition) = 92

# compound CN(C)C(c1ccccc1)C1CCC(CNC(=O)COCC2CCCN(S(=O)(=O)c3ccccc3)C2)CC1 (stereo not shown) [Example 129] ; its 5-HT (inhibition of reuptake of serotonin, % inhibition) = 95

# compound COc1ccc(S(=O)(=O)N(C)CCOCC(=O)NCCC2CCC(C(c3ccc(F)cc3)N(C)C)CC2)cc1OC (stereo not shown) [Example 484] ; its 5-HT (inhibition of reuptake of serotonin, % inhibition) = 96

# compound COc1ccc(S(=O)(=O)N2CCCCC2COCC(=O)NC2CCC(C(c3cccc(F)c3)N(C)C)CC2)cc1OC (stereo not shown) [Example 352] ; its 5-HT (inhibition of reuptake of serotonin, % inhibition) = 91

# compound CN(C)C(c1ccc(Cl)cc1)C1CCC(CNC(=O)COC2CCCCC2N(C)S(=O)(=O)c2ccc(Cl)c(Cl)c2)CC1 (stereo not shown) [Example 269] ; its 5-HT (inhibition of reuptake of serotonin, % inhibition) = 87

###

- SYSTEM: human μ opiate receptor (Homo sapiens)
- Construct: purchased PerkinElmer Life Sciences, Zaventem, Belgium RB-HOM; host or cells: CHO-K1 cells (membrane preparation)
- Sequence (P35372 whole entry): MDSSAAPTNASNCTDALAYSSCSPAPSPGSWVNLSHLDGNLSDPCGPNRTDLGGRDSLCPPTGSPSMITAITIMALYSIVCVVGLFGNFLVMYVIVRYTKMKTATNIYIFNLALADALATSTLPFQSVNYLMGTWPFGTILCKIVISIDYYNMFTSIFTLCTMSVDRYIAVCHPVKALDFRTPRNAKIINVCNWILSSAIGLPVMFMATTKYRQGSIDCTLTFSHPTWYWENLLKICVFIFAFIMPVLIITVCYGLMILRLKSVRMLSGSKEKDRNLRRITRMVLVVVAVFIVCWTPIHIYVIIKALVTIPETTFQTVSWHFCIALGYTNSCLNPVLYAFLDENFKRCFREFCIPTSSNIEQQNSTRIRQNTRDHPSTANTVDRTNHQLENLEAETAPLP
- EXPERIMENTAL PROTOCOL: Affinity for the human μ opiate receptor ([3H]-naloxone displacement, CHO-K1 receptor membrane preparation, SPA)
- Format: binding
- MEASUREMENT CONDITIONS: test concentration of 1 μM
MEASURED METRIC: μ (binding on the μ opioid receptor, % inhibition) (%)
Your answer should be a plain number; it is taken to be in %.

# compound CN(C)C(c1ccc(Cl)cc1)C1CCC(CCNC(=O)COCc2ccccc2)CC1 (stereo not shown) [Example 482] ; its μ (binding on the μ opioid receptor, % inhibition) = 47

# compound CN(C)C(c1ccc(F)cc1)C1CCC(CCNC(=O)COCCN(C)S(=O)(=O)c2cccc(C(F)(F)F)c2)CC1 (stereo not shown) [Example 368] ; its μ (binding on the μ opioid receptor, % inhibition) = 61

# compound COc1ccc(S(=O)(=O)N2Cc3ccccc3CC2COCC(=O)NCC2CCC(C(CCc3ccccc3)N(C)C)CC2)cc1 (stereo not shown) [Example 373] ; its μ (binding on the μ opioid receptor, % inhibition) = 62

# compound COc1ccc(S(=O)(=O)N(C)CCOCC(=O)NC2CCC(C(c3ccccc3)N(C)C)CC2)cc1 (stereo not shown) [Example 590] ; its μ (binding on the μ opioid receptor, % inhibition) = 75

# compound CN(C)C(c1cccc(F)c1)C1CCC(CCNC(=O)COCC2CCCN(S(=O)(=O)c3ccccc3)C2)CC1 (stereo not shown) [Example 295] ; its μ (binding on the μ opioid receptor, % inhibition) = 71

# compound COc1cc(C)c(S(=O)(=O)N2CCC(OCC(=O)NCC3CCC(C(c4ccc(Cl)cc4)N(C)C)CC3)C2)c(C)c1C (stereo not shown) [Example 428] ; its μ (binding on the μ opioid receptor, % inhibition) = 49

# compound CN(C)C(c1cccc(F)c1)C1CCC(NC(=O)COc2ccc(Cl)cc2)CC1 (stereo not shown) [Example 505] ; its μ (binding on the μ opioid receptor, % inhibition) = 42

###

- SYSTEM: human bradykinin 1 receptor (B1R) (Homo sapiens, UniProt P46663)
- Construct: expressed in transfected cells; host or cells: CHO K1 cells
- Sequence (P46663 whole entry): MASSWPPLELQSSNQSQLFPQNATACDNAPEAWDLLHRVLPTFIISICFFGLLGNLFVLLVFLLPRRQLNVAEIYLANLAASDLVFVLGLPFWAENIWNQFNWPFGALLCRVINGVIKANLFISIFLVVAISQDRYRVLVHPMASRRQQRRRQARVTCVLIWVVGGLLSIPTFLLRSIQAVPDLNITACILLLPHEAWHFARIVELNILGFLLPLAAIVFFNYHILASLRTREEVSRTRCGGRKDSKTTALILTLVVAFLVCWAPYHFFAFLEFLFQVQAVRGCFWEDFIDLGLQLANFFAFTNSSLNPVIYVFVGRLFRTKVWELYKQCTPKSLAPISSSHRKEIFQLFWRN
- EXPERIMENTAL PROTOCOL: Functional investigation on the human bradykinin 1 receptor (B1R), Ca2+ FLIPR assay in CHO K1 hB1R cells
- Assay type: cell-based
- MEASUREMENT CONDITIONS: CHO-K1, B1R antagonism human; test substance 10 μM; Ca2+ FLIPR, CHO K1 hB1R cells; read-out: B1R Ant. h [10 μM] % Inhibition
Please provide measured inhibition at 10 µM for the entries that follow.
Your answer should be a plain number; it is taken to be in %.

# molecule COc1cc(C)c(S(=O)(=O)N2CCC(OCC(=O)NCCC3CCC(C(c4cccs4)N(C)C)CC3)C2)c(C)c1 (stereo not shown) [Example 199] ; its inhibition at 10 µM = 104

# molecule CN(CCOCC(=O)NCC1CCC(C(CCc2ccccc2)N2CCCC2)CC1)S(=O)(=O)c1c(Cl)cc(C(F)(F)F)cc1Cl (stereo not shown) [Example 746] ; its inhibition at 10 µM = 98

# molecule COc1cc(C)c(S(=O)(=O)N2CCCC(OCC(=O)NCC3CCC(C(c4cccc(F)c4)N(C)C)CC3)C2)c(C)c1C (stereo not shown) [Example 145] ; its inhibition at 10 µM = 12

# molecule CN(C)C(c1ccccc1)C1CCC(NC(=O)COCCN(C2CC2)S(=O)(=O)c2c(Cl)cc(Cl)cc2Cl)CC1 (stereo not shown) [Example 600] ; its inhibition at 10 µM = 101

# molecule COc1ccc(S(=O)(=O)N2CCCCC2COCC(=O)NCCC2CCC(C(c3cccs3)N(C)C)CC2)c(OC)c1 (stereo not shown) [Example 107] ; its inhibition at 10 µM = -4

# molecule COc1cc(C)c(S(=O)(=O)N(C)CCOCC(=O)NCC2CCC(C(c3ccccc3)N3CCCC3)CC2)c(C)c1 (stereo not shown) [Example 642] ; its inhibition at 10 µM = 105

# molecule CN(C)C(c1cccc(F)c1)C1CCC(CNC(=O)CNC(=O)c2nc(CS(=O)(=O)c3ccccc3)no2)CC1 (stereo not shown) [Example 781] ; its inhibition at 10 µM = -4

###

- SYSTEM: bradykinin 1 receptor (B1R) of the rat (Rattus norvegicus, UniProt P97583)
- Construct: expressed in transfected cells; host or cells: CHO K1 cells
- EXPERIMENTAL PROTOCOL: Functional investigation on the rat bradykinin 1 receptor (B1R), Ca2+ FLIPR assay in CHO K1 rB1R cells
- Assay type: cell-based
- MEASUREMENT CONDITIONS: B1R antagonism rat; test substance 10 μM; Ca2+ FLIPR, CHO K1 rB1R cells
- From the text: Functional Investigation on the Human Bradykinin 1 Receptor (B1R) The agonistic or antagonistic action of substances can be determined on the bradykinin 1 receptor (B1R) of the human species and rats with the following assay. In accordance with this assay, the Ca^2+ inflow through the channel is quantified with the aid of a Ca^2=-sensitive dyestuff (type Fluo-4, Molecular Probes Europe BV, Leiden, Holland) in a fluorescent imaging plate reader (FLIPR, Molecular Devices, Sunnyvale, USA). […]
Please provide measured B1R Ant. r [10 μM] % Inhibition for the entries that follow.
Your answer should be a plain number; it is taken to be in %.

# compound CN(C)C(c1ccc(Cl)cc1)C1CCC(CCNC(=O)COC2CCN(S(=O)(=O)c3ccccc3)C2)CC1 (stereo not shown) ; its B1R Ant. r [10 μM] % Inhibition = 6

# compound CN(C)C(CCc1ccccc1)C1CCC(CNC(=O)COCCN(Cc2ccccc2)S(=O)(=O)c2ccccc2)CC1 (stereo not shown) ; its B1R Ant. r [10 μM] % Inhibition = 12

# compound CN(C)C(c1ccc(Cl)cc1)C1CCC(CNC(=O)COC2CCN(S(=O)(=O)c3cccc(C(F)(F)F)c3)C2)CC1 (stereo not shown) ; its B1R Ant. r [10 μM] % Inhibition = 44

# compound CN(C)C(c1cccc(F)c1)C1CCC(CNC(=O)COC2CCN(S(=O)(=O)c3ccccc3)CC2)CC1 (stereo not shown) ; its B1R Ant. r [10 μM] % Inhibition = 17
